Reported self-cleavage is given for each of the following variants.
B1: HDV Ribozyme (parent)
chain: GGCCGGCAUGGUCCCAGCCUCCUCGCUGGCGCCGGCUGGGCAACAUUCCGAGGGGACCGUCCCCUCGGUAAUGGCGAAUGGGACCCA

Variants of: B1
experiment_description: self-cleavage, relative activity (ratio to wild type); higher = more cleavage; co-transcriptional
value_kind: self-cleavage

>  <mut>
A16C G17U

>  <quantitative_readout>
0.332

$$$$
>  <mut>
U9A G50C

>  <quantitative_readout>
0.898

$$$$
>  <mut>
U20A C24G

>  <quantitative_readout>
0.0449

$$$$
>  <mut>
C58G G74C

>  <quantitative_readout>
0.101

$$$$
